tested on: RS4-11; assay: Induction of apoptosis in human RS4:11 cells overexpressing BCL-2 assessed as caspase 3/7 activation after 6 hrs by quantitative luminescence assay; format: functional, cell-based; conditions: RS4-11, 6 h
Record form. Attribute: pEC50. Fill in for each entry.
pEC50 is a log-scale quantity: -log10 of the concentration expressed in molar.

Specify reported pEC50 for the compound shown: O=C(NS(=O)(=O)c1ccc(N[C@H](CCN2CCOCC2)CSc2ccccc2)c(S(=O)(=O)C(F)(F)F)c1)c1ccc(N2CCC(CO)(Cc3ccccc3-c3ccc(Cl)cc3)CC2)cc1
6.95

Specify reported pEC50 for the compound shown: NCC1(Cc2ccccc2-c2ccc(Cl)cc2)CCN(c2ccc(C(=O)NS(=O)(=O)c3ccc(N[C@H](CCN4CCOCC4)CSc4ccccc4)c(S(=O)(=O)C(F)(F)F)c3)cc2)CC1
6.40

Specify reported pEC50 for the compound shown: O=C(NS(=O)(=O)c1ccc(N[C@H](CCN2CCOCC2)CSc2ccccc2)c(S(=O)(=O)C(F)(F)F)c1)c1ccc(N2CCN(Cc3ccccc3-c3ccc(Cl)cc3)CC2)cc1
7.96

Specify reported pEC50 for the compound shown: CN(C)C(=O)COc1cccc(-c2ccc(Cl)cc2)c1CN1CCN(c2ccc(C(=O)NS(=O)(=O)c3ccc(N[C@H](CCN4CCOCC4)CSc4ccccc4)c(S(=O)(=O)C(F)(F)F)c3)cc2)CC1
7.74

Specify reported pEC50 for the compound shown: CN(C)CCOc1ccc(-c2ccc(Cl)cc2)c(CN2CCN(c3ccc(C(=O)NS(=O)(=O)c4ccc(N[C@H](CCN5CCOCC5)CSc5ccccc5)c(S(=O)(=O)C(F)(F)F)c4)cc3)CC2)c1
7.64

Specify reported pEC50 for the compound shown: O=C(NS(=O)(=O)c1ccc(N[C@H](CCN2CCOCC2)CSc2ccccc2)c(S(=O)(=O)C(F)(F)F)c1)c1cnc(N2CCN(Cc3ccccc3-c3ccc(Cl)cc3)CC2)nc1
6.75

---

target: Bcl-2-like protein 1 (Homo sapiens, UniProt Q07817)
Sequence (Q07817 whole entry): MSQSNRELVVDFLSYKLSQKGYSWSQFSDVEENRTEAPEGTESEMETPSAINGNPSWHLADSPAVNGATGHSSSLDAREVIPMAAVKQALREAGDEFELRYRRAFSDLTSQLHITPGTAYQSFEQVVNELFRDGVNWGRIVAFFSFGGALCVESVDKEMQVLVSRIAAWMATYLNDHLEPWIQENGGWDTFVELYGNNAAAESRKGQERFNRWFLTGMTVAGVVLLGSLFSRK
Cut-off 60 nM on IC50: below means rule met, at or above means rule not met.

Dear colleague, could you confirm whether IC50 of N=C(NS(=O)(=O)c1ccc(N[C@H](CCN2CCOCC2)CSc2ccccc2)c(S(=O)(=O)C(F)(F)F)c1)c1ccc(N2CCN(Cc3ccccc3-c3ccc(Cl)cc3)CC2)cc1 falls below 60 nM? Thanks.
rule not met

Dear colleague, could you confirm whether IC50 of O=C(NS(=O)(=O)c1ccc(N[C@H](CCN2CCOCC2)CSc2ccccc2)c(S(=O)(=O)C(F)(F)F)c1)c1ccc(N2CCC(CO)(Cc3ccccc3-c3ccc(Cl)cc3)CC2)cc1 falls below 60 nM? Thanks.
rule met

Dear colleague, could you confirm whether IC50 of O=C(NS(=O)(=O)c1ccc(N[C@H](CCN2CCOCC2)CSc2ccccc2)c(S(=O)(=O)C(F)(F)F)c1)c1ccc(N2CCN(Cc3ccccc3-c3ccc(Cl)cc3)CC2)nn1 falls below 60 nM? Thanks.
rule not met

Dear colleague, could you confirm whether IC50 of O=C(NS(=O)(=O)c1ccc(N[C@H](CCN2CCOCC2)CSc2ccccc2)c(S(=O)(=O)C(F)(F)F)c1)c1ccc(N2CCC(Sc3ccccc3-c3ccc(Cl)cc3)CC2)cc1 falls below 60 nM? Thanks.
rule met

Dear colleague, could you confirm whether IC50 of O=C(NS(=O)(=O)c1ccc(N[C@H](CCN2CCOCC2)CSc2ccccc2)c(S(=O)(=O)C(F)(F)F)c1)c1ccc(N2CCC([S@@+]([O-])c3ccccc3-c3ccc(Cl)cc3)CC2)cc1 falls below 60 nM? Thanks.
rule met

Dear colleague, could you confirm whether IC50 of O=C(NS(=O)(=O)c1ccc(N[C@H](CCN2CCOCC2)CSc2ccccc2)c(S(=O)(=O)C(F)(F)F)c1)c1ccc(P2(=O)CCN(Cc3ccccc3-c3ccc(Cl)cc3)CC2)cc1 falls below 60 nM? Thanks.
rule not met

Dear colleague, could you confirm whether IC50 of O=C(NS(=O)(=O)c1ccc(N[C@H](CCN2CCOCC2)CSc2ccccc2)c(S(=O)(=O)C(F)(F)F)c1)c1ccc(N2CCC(Oc3ccccc3-c3ccc(Cl)cc3)CC2)cc1 falls below 60 nM? Thanks.
rule met

Dear colleague, could you confirm whether IC50 of O=C(NS(=O)(=O)c1ccc(N[C@H](CCN2CCOCC2)CSc2ccccc2)c(S(=O)(=O)C(F)(F)F)c1)c1ccc(N2CC3(CN(Cc4ccccc4-c4ccc(Cl)cc4)C3)C2)cc1 falls below 60 nM? Thanks.
rule not met

Dear colleague, could you confirm whether IC50 of O=C(NS(=O)(=O)c1ccc(N[C@H](CCN2CCOCC2)CSc2ccccc2)c(S(=O)(=O)C(F)(F)F)c1)c1csc(N2CCN(Cc3ccccc3-c3ccc(Cl)cc3)CC2)n1 falls below 60 nM? Thanks.
rule not met

Dear colleague, could you confirm whether IC50 of O=C(NS(=O)(=O)c1ccc(N[C@H](CCN2CCOCC2)CSc2ccccc2)c(S(=O)(=O)C(F)(F)F)c1)c1ccc(N2CCC(S(=O)(=O)c3ccccc3-c3ccc(Cl)cc3)CC2)cc1 falls below 60 nM? Thanks.
rule met

Dear colleague, could you confirm whether IC50 of N#CC1(Cc2ccccc2-c2ccc(Cl)cc2)CCN(c2ccc(C(=O)NS(=O)(=O)c3ccc(N[C@H](CCN4CCOCC4)CSc4ccccc4)c(S(=O)(=O)C(F)(F)F)c3)cc2)CC1 falls below 60 nM? Thanks.
rule met

---

Record form. Attribute: pKa. Fill in for each entry.
test: Dissociation constant, pKa of the compound; type: physicochemical
Could you keep your reply to the number by itself?

Specify reported pKa for the molecule shown: O=C(NS(=O)(=O)c1ccc(N[C@H](CCN2CCOCC2)CSc2ccccc2)c(S(=O)(=O)C(F)(F)F)c1)c1csc(N2CCN(Cc3ccccc3-c3ccc(Cl)cc3)CC2)n1
2.6

Specify reported pKa for the molecule shown: O=C(NS(=O)(=O)c1ccc(N[C@H](CCN2CCOCC2)CSc2ccccc2)c(S(=O)(=O)C(F)(F)F)c1)c1cnc(N2CCN(Cc3ccccc3-c3ccc(Cl)cc3)CC2)nc1
3.5

Specify reported pKa for the molecule shown: O=C(NS(=O)(=O)c1ccc(N[C@H](CCN2CCOCC2)CSc2ccccc2)c(S(=O)(=O)C(F)(F)F)c1)c1ccc(N2CCN(Cc3ccccc3-c3ccc(Cl)cc3)CC2)nn1
3.6

---

Record form. Attribute: solubility thermodynamic. Fill in for each entry.
experiment: Equilibrium solubility of the compound at pH 7.4; assay type: physicochemical; settings: buffer
Expressed in µM, but write only the number.

Specify reported solubility thermodynamic for the compound shown: O=C(NS(=O)(=O)c1ccc(N[C@H](CCN2CCOCC2)CSc2ccccc2)c(S(=O)(=O)C(F)(F)F)c1)c1csc(N2CCN(Cc3ccccc3-c3ccc(Cl)cc3)CC2)n1
2

Specify reported solubility thermodynamic for the compound shown: O=C(NS(=O)(=O)c1ccc(N[C@H](CCN2CCOCC2)CSc2ccccc2)c(S(=O)(=O)C(F)(F)F)c1)c1cnc(N2CCN(Cc3ccccc3-c3ccc(Cl)cc3)CC2)nc1
3

Specify reported solubility thermodynamic for the compound shown: O=C(NS(=O)(=O)c1ccc(N[C@H](CCN2CCOCC2)CSc2ccccc2)c(S(=O)(=O)C(F)(F)F)c1)c1ccc(N2CCN(Cc3ccccc3-c3ccc(Cl)cc3)CC2)cc1
14

Specify reported solubility thermodynamic for the compound shown: O=C(NS(=O)(=O)c1ccc(N[C@H](CCN2CCOCC2)CSc2ccccc2)c(S(=O)(=O)C(F)(F)F)c1)c1ccc(N2CCC([S@@+]([O-])c3ccccc3-c3ccc(Cl)cc3)CC2)cc1
26

---

assay: Equilibrium solubility of the compound at pH 7.4; format: physicochemical; details: buffer
Record form. Attribute: log10 solubility thermodynamic. Fill in for each entry.
Annotation: log10 of solubility thermodynamic, µM basis.

Specify reported log10 solubility thermodynamic for the compound shown: O=C(NS(=O)(=O)c1ccc(N[C@H](CCN2CCOCC2)CSc2ccccc2)c(S(=O)(=O)C(F)(F)F)c1)c1ccc(N2CCC(CO)(Cc3ccccc3-c3ccc(Cl)cc3)CC2)cc1
0.78

Specify reported log10 solubility thermodynamic for the compound shown: O=C(NS(=O)(=O)c1ccc(N[C@H](CCN2CCOCC2)CSc2ccccc2)c(S(=O)(=O)C(F)(F)F)c1)c1ccc(N2CCN(Cc3ccccc3-c3ccc(Cl)cc3)CC2)nn1
1.58

Specify reported log10 solubility thermodynamic for the compound shown: O=C(NS(=O)(=O)c1ccc(N[C@H](CCN2CCOCC2)CSc2ccccc2)c(S(=O)(=O)C(F)(F)F)c1)c1ccc(N2CCC(Oc3ccccc3-c3ccc(Cl)cc3)CC2)cc1
1.54

Specify reported log10 solubility thermodynamic for the compound shown: N#CC1(Cc2ccccc2-c2ccc(Cl)cc2)CCN(c2ccc(C(=O)NS(=O)(=O)c3ccc(N[C@H](CCN4CCOCC4)CSc4ccccc4)c(S(=O)(=O)C(F)(F)F)c3)cc2)CC1
0.30

Specify reported log10 solubility thermodynamic for the compound shown: O=C(NS(=O)(=O)c1ccc(N[C@H](CCN2CCOCC2)CSc2ccccc2)c(S(=O)(=O)C(F)(F)F)c1)c1ccc(P2(=O)CCN(Cc3ccccc3-c3ccc(Cl)cc3)CC2)cc1
0.60

Specify reported log10 solubility thermodynamic for the compound shown: O=C(NS(=O)(=O)c1ccc(N[C@H](CCN2CCOCC2)CSc2ccccc2)c(S(=O)(=O)C(F)(F)F)c1)c1ccc(N2CCC(S(=O)(=O)c3ccccc3-c3ccc(Cl)cc3)CC2)cc1
1.43

Specify reported log10 solubility thermodynamic for the compound shown: CN(C)C(=O)COc1ccc(-c2ccc(Cl)cc2)c(CN2CCN(c3ccc(C(=O)NS(=O)(=O)c4ccc(N[C@H](CCN5CCOCC5)CSc5ccccc5)c(S(=O)(=O)C(F)(F)F)c4)cc3)CC2)c1
0.30

These measurements were taken from ChEMBL document CHEMBL3351631.
